system: nucleic acids; experiment: Excitation/emission maxima of dyes complexed with nucleic acids; type: physicochemical; set-up: key: wavelength in nm; settings: Table 2; dye complexed with nucleic acids
observable: EM max

molecule	measured-target	observable	observed-result
CCCCC1=CC(=CC=Cc2sc3ccccc3[n+]2C)c2ccccc2N1c1ccccc1	nucleic acids	EM max	656
COC1=CC(=CC=Cc2oc3ccccc3[n+]2C)c2ccccc2N1c1ccccc1	nucleic acids	EM max	611
CCCCC1=CC(=CC=Cc2sc3ccccc3[n+]2C)C=CN1c1ccccc1	nucleic acids	EM max	611
CCCCC1=CC(=Cc2sc3ccccc3[n+]2C)c2ccccc2N1c1ccccc1	nucleic acids	EM max	527
CCCCCCN1C=CC(=Cc2sc3ccccc3[n+]2C)c2ccccc21	nucleic acids	EM max	530
CSC1=CC(=Cc2sc3ccccc3[n+]2C)c2ccccc2N1c1ccccc1	nucleic acids	EM max	526
CCOC1=CC(=Cc2sc3ccccc3[n+]2C)c2ccccc2N1c1ccccc1	nucleic acids	EM max	507
COc1ccc(N2C(Cl)=CC(=Cc3sc4ccccc4[n+]3C)c3ccccc32)cc1	nucleic acids	EM max	533

====

test system: nucleic acids; test: Excitation/emission maxima of dyes complexed with nucleic acids; assay type: physicochemical; set-up: key: wavelength in nm; details: Table 2; dye complexed with nucleic acids
observable: EX max

molecule	EX max
CN1C(=Cc2cc(N3CCOCC3)[n+](C)c3ccccc23)Sc2ccccc21	494
C[n+]1c(C=C2C=C(Cl)N(c3ccccc3)c3ccccc32)oc2ccccc21	489
CSC1=CC(=Cc2sc3ccccc3[n+]2C)c2ccccc2N1c1ccccc1	503
C[n+]1c(C=C2C=C(Sc3ccccn3)N(c3ccccc3)c3ccccc32)sc2ccccc21	516
C[n+]1c(C=C2C=C(OS(=O)(=O)C(F)(F)F)N(c3ccccc3)c3ccccc32)sc2ccccc21	483
COC1=CC(=Cc2sc3ccccc3[n+]2C)c2ccccc2N1c1ccccc1	488
CCCCC1=CC(=CC=Cc2sc3ccccc3[n+]2C)c2ccccc2N1c1ccccc1	635
CC(C)OC1=CC(=Cc2sc3ccccc3[n+]2C)c2ccccc2N1c1ccccc1	486

====

test system: nucleic acids; assay: Excitation/emission maxima of dyes complexed with nucleic acids; format: physicochemical; design: key: wavelength in nm; details: Table 2; dye complexed with nucleic acids
observable: EM max

compound	EM max
CN1C(=Cc2cc[n+](C3CCCCC3)c3ccccc23)Sc2ccccc21 [compound 73]	525
CC1=CC(=Cc2sc3ccccc3[n+]2C)c2ccccc2N1c1ccccc1	523
C[n+]1c(C=C2C=C(OS(=O)(=O)C(F)(F)F)N(c3ccccc3)c3ccccc32)sc2ccccc21	520
CN1CCN(C2=CC(=Cc3sc4ccccc4[n+]3C)c3ccccc3N2c2ccccc2)CC1	523
C[n+]1c(C=C2C=CN(c3ccccc3)c3ccccc32)sc2ccccc21	531
COc1ccccc1N1C=CC(=Cc2sc3ccccc3[n+]2C)C=C1Cl	510
CN1C=CC(=Cc2sc3ccccc3[n+]2C)c2cccc(-c3ccccc3)c21	535
C[n+]1c(C=C2C=CN(c3ccccc3)C=C2)sc2ccccc21	516
C[n+]1c(C=C2C=C(Cl)N(c3ccccc3)c3ccccc32)oc2ccccc21	508
CN1C(c2ccccc2)=CC(=Cc2sc3ccccc3[n+]2C)c2ccccc21	548

====

Tested on: nucleic acids
Assay: Excitation/emission maxima of dyes complexed with nucleic acids
Assay type: physicochemical
Parameters: key: wavelength in nm
Conditions: Table 2; dye complexed with nucleic acids
Source text: Dye I is lightly colored and is virtually non-fluorescent when diluted in aqueous solution according to the method of the invention. Dye I is highly membrane-permeant and labels all cells, whether live or dead. When Dye I binds with intracellular nucleic acid polymers such as DNA and RNA, the resultant dye-nucleic acid complex becomes extremely fluorescent upon illumination. […] Typically, Dye I combines with intracellular nucleic acids to give a green or red fluorescence. […]
observable: EX max

compound	EX max
COC1=CC(=CC=Cc2oc3ccccc3[n+]2C)c2ccccc2N1c1ccccc1 [compound 672]	586
CN1C=CC(=Cc2sc3ccccc3[n+]2C)c2cccc(-c3ccccc3)c21 [compound 72]	515
CN1C(=Cc2cc[n+](C3CCCCC3)c3ccccc23)Sc2ccccc21 [compound 542]	510
C[n+]1c(C=C2C=C(Oc3ccccc3)N(c3ccccc3)c3ccccc32)sc2ccccc21 [compound 835]	495
C[n+]1c(C=C2C=Cc3ccccc3N2c2ccccc2)sc2ccccc21 [compound 64]	450
C[n+]1c(C=C2C=CN(c3ccccc3)C=C2)sc2ccccc21 [compound 640]	471
COc1ccc(N2C(Cl)=CC(=Cc3sc4ccccc4[n+]3C)c3ccccc32)cc1 [compound 582]	516
CN1C(=Cc2cc[n+](C3CCCCC3)c3ccccc23)Sc2ccccc21 [compound 73]	508
CN1C(C2CCCCC2)=CC(=Cc2sc3ccccc3[n+]2C)c2ccccc21 [compound 6104]	505
C[n+]1c(C=C2C=C(Cl)N(c3ccccc3)c3ccccc32)sc2ccccc21 [compound 591]	509
C[n+]1c(C=C2C=C(C3CCCCC3)N(c3ccccc3)c3ccccc32)sc2ccccc21 [compound 765]	506
C[n+]1c(C=C2C=C(Br)N(c3ccccc3)c3ccccc32)sc2ccccc21 [compound 774]	517
CN1C(c2ccccc2)=CC(=Cc2sc3ccccc3[n+]2C)c2ccccc21 [compound 639]	513
CCOC1=CC(=Cc2sc3ccccc3[n+]2C)c2ccccc2N1c1ccccc1 [compound 720]	487
CCCCC1=CC(=Cc2oc3ccccc3[n+]2C)c2ccccc2N1c1ccccc1 [compound 624]	480
C[n+]1c(C=C2C=C(Cl)N(C3CCCCC3)c3ccccc32)sc2ccccc21 [780 (Cl)]	513
CCN(CC)C1=CC(=Cc2sc3ccccc3[n+]2C)c2ccc(OC)cc2N1c1ccccc1 [compound 760]	485
CCN(CC)C1=CC(=Cc2sc3ccccc3[n+]2C)c2ccccc2N1c1ccccc1 [compound 619]	488
C[n+]1c(C=C2C=C(c3ccccc3)N(c3ccccc3)c3ccccc32)sc2ccccc21 [compound 630]	517
CN1CCN(C2=CC(=Cc3sc4ccccc4[n+]3C)c3ccccc3N2c2ccccc2)CC1 [compound 856]	502
CCCCC1=CC(=CC=Cc2oc3ccccc3[n+]2C)c2ccccc2N1c1ccccc1 [compound 637]	601
CN1C(=Cc2cc[n+](C)c3ccccc23)Sc2ccccc21 [Thiazole Orange, reference compound]	510
C[n+]1c(C=C2C=C(F)N(c3ccccc3)c3ccccc32)sc2ccccc21 [compound 834]	486
CCCCC1=CC(=Cc2sc3ccccc3[n+]2C)c2ccccc2N1c1ccccc1 [compound 61]	500
CCCCCCN1C=CC(=Cc2sc3ccccc3[n+]2C)c2ccccc21 [compound 634]	510
COc1ccccc1N1C=CC(=Cc2sc3ccccc3[n+]2C)C=C1Cl [compound 616]	471
C[n+]1c(C=C2C=CN(c3ccccc3)c3ccccc32)sc2ccccc21 [dye 63]	514
CCCCC1=CC(=CC=Cc2sc3ccccc3[n+]2C)C=CN1c1ccccc1 [compound 742]	570
